Items are presented alongside their recorded mean half-life (T1/2) of peptide-MHC complex.
target: T1, human recombinant HLA-B*08:01 and b2m (human); assay: pMHC dissociation assay at 37 C; mean half-life grade
T1 construct: expressed in E. coli and purified; stability of the peptide-MHC complex read as b2m associated with the heavy chain over time at 37 C

For orientation, consider the following solved cases.
DMKYKNRV    2 to 4 h
LNKQKVTF    > 10 h
SLRLKNVQL    2 to 4 h
VLLPRLVSC    2 to 4 h
DVKKKIKEV    2 to 4 h
ALKTTTTAL    2 to 4 h

Then this binder:
Query: Tell us which mean half-life (T1/2) of peptide-MHC complex value is on record for YLLEKSRVI
Reply: 4 to 6 h
